Data credit: paper PMC11816618

# TEST SUMMARY: PK comparison between three administration routes (IV, PO, SC), plasma LC-MS/MS
# Assay type: in vivo, Sprague-Dawley rats
# ASSAY SETUP: Sprague-Dawley, rat; analyte in plasma after single ANA dose 0.5 mg/kg IV, male SD rats, n = 3, mean ± SD
MEASUREMENT NAME: AUC(0-t) (ng·h/mL)
Supply the numeric figure in ng·h/mL, leaving out any unit text.

Read off the recorded AUC(0-t) for O=C1CN2Cc3c(ccc(Cl)c3Cl)N=C2N1 [Anagrelide]
261

----------
# TEST SUMMARY: PK comparison between three administration routes (IV, PO, SC), plasma LC-MS/MS
# Assay type: in vivo, Sprague-Dawley rats
# ASSAY SETUP: Sprague-Dawley, rat, plasma; single ANA dose 2.5 mg/kg PO, male SD rats, n = 3, mean ± SD; read-out: Vz/F
MEASUREMENT NAME: Vd/F (L/kg)
Supply the numeric figure in L/kg, leaving out any unit text.

Read off the recorded Vd/F for O=C1CN2Cc3c(ccc(Cl)c3Cl)N=C2N1 [Anagrelide]
634

----------
# TEST SUMMARY: PK comparison between three administration routes (IV, PO, SC), plasma LC-MS/MS
# Assay type: in vivo, Sprague-Dawley rats
# ASSAY SETUP: Sprague-Dawley, rat, plasma; single ANA dose 1.0 mg/kg SC in miglyol, male SD rats, n = 5, mean ± SD
MEASUREMENT NAME: bioavailability (%)
Supply the numeric figure in %, leaving out any unit text.

Read off the recorded bioavailability for O=C1CN2Cc3c(ccc(Cl)c3Cl)N=C2N1 [Anagrelide]
33.5

----------
# TEST SUMMARY: PK comparison between three administration routes (IV, PO, SC), plasma LC-MS/MS
# Format: in vivo, Sprague-Dawley rats
# ASSAY SETUP: Sprague-Dawley, rat; analyte in plasma after single ANA dose 2.5 mg/kg PO, male SD rats, n = 3, mean ± SD
MEASUREMENT NAME: AUC(0-inf) (ng·h/mL)
Supply the numeric figure in ng·h/mL, leaving out any unit text.

Read off the recorded AUC(0-inf) for O=C1CN2Cc3c(ccc(Cl)c3Cl)N=C2N1 [Anagrelide]
59.3

Read off the recorded AUC(0-inf) for NC1=Nc2ccc(Cl)c(Cl)c2CN1
34.8

----------
What Tmax was measured for each of the following?
# TEST SUMMARY: PK comparison between three administration routes (IV, PO, SC), plasma LC-MS/MS
# Assay type: in vivo, Sprague-Dawley rats
# ASSAY SETUP: male, Sprague-Dawley, rat, plasma, po, 2.5 mg/kg, analyte in plasma after single ANA dose 2.5 mg/kg PO, male SD rats, n = 3, mean ± SD; read-out: Tmax
# Experimental: The rats were purchased from SPF Biotechnology Co. Ltd. (Beijing, China). Animals were acclimated to the test facility for at least three days, during which their general health was checked by veterinary staff or other authorized personnel. Animals were kept in polycarbonate cages containing absorbent corncob bedding, with a maintained temperature range of +20-25 °C and a 12-h light/dark cycle. […] SD rat plasma was analyzed for ANA, 3-OH-ANA, and RL603 concentrations by Pharmaron (Beijing, China). […]
Supply the numeric figure in h, leaving out any unit text.

Read off the recorded Tmax for O=C1CN2Cc3c(ccc(Cl)c3Cl)N=C2N1 [Anagrelide]
1

Read off the recorded Tmax for NC1=Nc2ccc(Cl)c(Cl)c2CN1 [RL603]
1.67

----------
# TEST SUMMARY: PK comparison between three administration routes (IV, PO, SC), plasma LC-MS/MS
# Type: in vivo, Sprague-Dawley rats
# ASSAY SETUP: Sprague-Dawley, rat, plasma; single ANA dose 2.5 mg/kg PO, male SD rats, n = 3, mean ± SD
# Protocol: The rats were purchased from SPF Biotechnology Co. Ltd. (Beijing, China). Animals were acclimated to the test facility for at least three days, during which their general health was checked by veterinary staff or other authorized personnel. Animals were kept in polycarbonate cages containing absorbent corncob bedding, with a maintained temperature range of +20-25 °C and a 12-h light/dark cycle. […] SD rat plasma was analyzed for ANA, 3-OH-ANA, and RL603 concentrations by Pharmaron (Beijing, China). […]
MEASUREMENT NAME: MRT inf (h)
Supply the numeric figure in h, leaving out any unit text.

Read off the recorded MRT inf for O=C1CN2Cc3c(ccc(Cl)c3Cl)N=C2N1 [Anagrelide]
6.38

----------
What half-life was measured for each of the following?
# TEST SUMMARY: Long-term plasma exposure after a single SC ANA dose (56-day follow-up), plasma LC-MS/MS
# Assay type: in vivo, Sprague-Dawley rats
# ASSAY SETUP: Sprague-Dawley, rat; analyte in plasma after single SC ANA dose 7 mg/kg, male SD rats, n = 5, 56-day follow-up
# Experimental: To monitor the sustained release of SC ANA in the long term, 10 male SD rats were treated with a single dose of either 7.0 mg/kg (n = 5) or 35.0 mg/kg (n = 5). The rats were purchased from SPF Biotechnology Co. Ltd. (Beijing, China). Animals were acclimated to the test facility for at least three days, during which their general health was checked by veterinary staff or other authorized personnel. […] SD rat plasma was analyzed for ANA, 3-OH-ANA, and RL603 concentrations by Pharmaron (Beijing, China). […]
Supply the numeric figure in days, leaving out any unit text.

Read off the recorded half-life for NC1=Nc2ccc(Cl)c(Cl)c2CN1
37.3

Read off the recorded half-life for O=C1CN2Cc3c(ccc(Cl)c3Cl)N=C2N1 [Anagrelide]
12.2

----------
# TEST SUMMARY: Long-term plasma exposure after a single SC ANA dose (56-day follow-up), plasma LC-MS/MS
# Format: in vivo, Sprague-Dawley rats
# ASSAY SETUP: Sprague-Dawley, rat; analyte in plasma after single SC ANA dose 35 mg/kg, male SD rats, n = 5, 56-day follow-up; read-out: Tmax
MEASUREMENT NAME: Tmax (h)
Supply the numeric figure in h, leaving out any unit text.

Read off the recorded Tmax for NC1=Nc2ccc(Cl)c(Cl)c2CN1
92.8

Read off the recorded Tmax for O=C1CN2Cc3c(ccc(Cl)c3Cl)N=C2N1 [Anagrelide]
2.2

----------
# TEST SUMMARY: Long-term plasma exposure after a single SC ANA dose (56-day follow-up), plasma LC-MS/MS
# Type: in vivo, Sprague-Dawley rats
# ASSAY SETUP: Sprague-Dawley, rat; analyte in plasma after single SC ANA dose 35 mg/kg, male SD rats, n = 5, 56-day follow-up
MEASUREMENT NAME: AUC(0-inf) (ng·h/mL)
Supply the numeric figure in ng·h/mL, leaving out any unit text.

Read off the recorded AUC(0-inf) for O=C1CN2Cc3c(ccc(Cl)c3Cl)N=C2N1 [Anagrelide]
9480

Read off the recorded AUC(0-inf) for NC1=Nc2ccc(Cl)c(Cl)c2CN1
2280

----------
# TEST SUMMARY: PK comparison between three administration routes (IV, PO, SC), plasma LC-MS/MS
# Type: in vivo, Sprague-Dawley rats
# ASSAY SETUP: Sprague-Dawley, rat; analyte in plasma after single ANA dose 1.0 mg/kg SC in miglyol, male SD rats, n = 5, mean ± SD
MEASUREMENT NAME: AUC(0-inf) (ng·h/mL)
Supply the numeric figure in ng·h/mL, leaving out any unit text.

Read off the recorded AUC(0-inf) for O=C1CN2Cc3c(ccc(Cl)c3Cl)N=C2N1 [Anagrelide]
187

----------
# TEST SUMMARY: PK comparison between three administration routes (IV, PO, SC), plasma LC-MS/MS
# Format: in vivo, Sprague-Dawley rats
# ASSAY SETUP: Sprague-Dawley, rat; analyte in plasma after single ANA dose 2.5 mg/kg PO, male SD rats, n = 3, mean ± SD
What Cmax was measured for each of the following?
Supply the numeric figure in ng/mL, leaving out any unit text.

Read off the recorded Cmax for O=C1CN2Cc3c(ccc(Cl)c3Cl)N=C2N1 [Anagrelide]
18

Read off the recorded Cmax for NC1=Nc2ccc(Cl)c(Cl)c2CN1 [RL603]
3.48

----------
# TEST SUMMARY: Long-term plasma exposure after a single SC ANA dose (56-day follow-up), plasma LC-MS/MS
# Type: in vivo, Sprague-Dawley rats
# ASSAY SETUP: Sprague-Dawley, rat; analyte in plasma after single SC ANA dose 35 mg/kg, male SD rats, n = 5, 56-day follow-up
What AUC(0-t) was measured for each of the following?
Supply the numeric figure in ng·h/mL, leaving out any unit text.

Read off the recorded AUC(0-t) for O=C1CN2Cc3c(ccc(Cl)c3Cl)N=C2N1 [Anagrelide]
6350

Read off the recorded AUC(0-t) for NC1=Nc2ccc(Cl)c(Cl)c2CN1
925

----------
# TEST SUMMARY: PK comparison between three administration routes (IV, PO, SC), plasma LC-MS/MS
# Assay type: in vivo, Sprague-Dawley rats
# ASSAY SETUP: Sprague-Dawley, rat; analyte in plasma after single ANA dose 1.0 mg/kg SC in miglyol, male SD rats, n = 5, mean ± SD
MEASUREMENT NAME: half-life

Read off the recorded half-life for O=C1CN2Cc3c(ccc(Cl)c3Cl)N=C2N1 [Anagrelide]
27.3 h

----------
# TEST SUMMARY: PK comparison between three administration routes (IV, PO, SC), plasma LC-MS/MS
# Type: in vivo, Sprague-Dawley rats
# ASSAY SETUP: Sprague-Dawley, rat; analyte in plasma after single ANA dose 0.5 mg/kg IV, male SD rats, n = 3, mean ± SD
# Procedure: The rats were purchased from SPF Biotechnology Co. Ltd. (Beijing, China). Animals were acclimated to the test facility for at least three days, during which their general health was checked by veterinary staff or other authorized personnel. Animals were kept in polycarbonate cages containing absorbent corncob bedding, with a maintained temperature range of +20-25 °C and a 12-h light/dark cycle. […] SD rat plasma was analyzed for ANA, 3-OH-ANA, and RL603 concentrations by Pharmaron (Beijing, China). […]
MEASUREMENT NAME: AUC(0-inf) (ng·h/mL)
Supply the numeric figure in ng·h/mL, leaving out any unit text.

Read off the recorded AUC(0-inf) for O=C1CN2Cc3c(ccc(Cl)c3Cl)N=C2N1 [Anagrelide]
262
